List of Octanol-water partition constant Kow values.
Test: Octanol-water distribution coefficient
Format: physicochemical
Details: 1-octanol / DI water, absorbance at 330 nm
// response body must contain only the number

compound	Octanol-water partition constant Kow
O=C(NC(CO)CO)C1(C(=O)NC(CO)CO)c2c1c1c3ccc4c5c6c7c(c8c9c7c7c%10c%11c%12c(ccc%13c2c2c1c1c3c4c6c7c1c%10c2c%12%13)C(C=C8)C9%11)C1C5C1(C(=O)NC(CO)CO)C(=O)NC(CO)CO (centres unmarked)	0.032
C[N+]1(C)Cc2c(c3c4ccc5c6c7c8c9c%10c%11c%12c%13c(c%14c%12c%12c(c2c2c%12c%11c9c(c4c58)c32)C2C[N+](C)(C)CC%142)C=CC2C%13C=%10C7C2C=C6)C1.[I-].[I-] (centres unmarked)	1.28
C[N+]1(C)Cc2c3c4c5c6c7c8c9c(c%10c8c8c(c%11c%12c(c%13c%14ccc%15c(c2C1)c4c1c%15c%14c2c%13c%11c8c7c2c61)C[N+](C)(C)C%12)C1C[N+](C)(C)CC%101)C=CC3C95.[I-].[I-].[I-] (centres unmarked)	0.37
C[N+]1(C)CC2c3c4c5c6c3c3c(c7ccc8c9ccc%10c%11c%12c%13c%14c(c6c6c3c7c8c(c9c%10%13)c%146)=C3C5C(C=C4)C(C=C%11)C3%12)C2C1.[I-] (centres unmarked)	140.80

Here's the next entry for you.
Input line: Consider the compound O=C(NC(CO)CO)C1(C(=O)NC(CO)CO)C2c3c4c5c6c3c3c(c7ccc8c9ccc%10c%11ccc%12c%13c(c%14c6c6c3c7c8c3c9c%10c(c%13%11)c%14c36)C5C%12C=C4)C21 (centres unmarked) and give its measured Octanol-water partition constant Kow.
Output line: 0.025
